B1: LINE1-full (parent)
chain: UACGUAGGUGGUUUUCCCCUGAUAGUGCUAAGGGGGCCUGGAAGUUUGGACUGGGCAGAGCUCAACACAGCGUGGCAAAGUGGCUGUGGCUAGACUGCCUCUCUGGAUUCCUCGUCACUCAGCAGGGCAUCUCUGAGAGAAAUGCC

Variants of: B1
Assay remarks: self-cleavage, relative activity (ratio to wild type); higher = more cleavage; in vitro, sequencing; the parent is a self-cleaving ribozyme
Reported endpoint: self-cleavage
Give bare numbers.

The following variants have reported results that may help.
{"Sequence input": "UACGUAGGUGGUUUUCCCCUGAUAGUGCUAAGGGGGCCUGGAAGCUUGGACUGGGCAGAGCUCAACACAGCGUGGCAAAGUGGCUGUGGCUAGACUGCCUCUCUGGAUUCCUCGUCACUCAGCAGGGCAUCUCUGAGAGAAAUGCU", "Value": 2.99}
{"Sequence input": "UACGUAGGUGGUUUUCCCCUGAUAGUGCUAAGGGGGCCCGGAAGUUUGGACUGGGCAGAGCUCAACACAGCGUGGCAAAGUGGCUGCGGCUAGACUGCCUCUCUGGAUUCCUCGUCACUCAGCAGGGCAUCUCUGAGAGAAAUGCC", "Value": 0.17}
{"Sequence input": "UACGUAGGUGGUUCUCCCCUGAUAGUGCUAAGGGGGCCUGGAAGUUUGGACUGGGCAGGGCUCAACACAGCGUGGCAAAGUGGCUGUGGCUAGACUGCCUCUCUGGAUUCCUCGUCACUCAGCAGGGCAUCUCUGAGAGAAAUGCC", "Value": 0.14}
{"Sequence input": "UACGUAGGUGGUUUUCCCCUGAUAGUGCUAGGGGGGCCUGGAAGUUUGGACUGGGCAGAGCUCAACACAGCGUGGCAAAGUGGCUGUGGCUAGACUGCCUCUCUGGAUUCCUCGUCACUCAGCAGGGCAUCACUGAGAGAAAUGCC", "Value": 0.94}
{"Sequence input": "UACAUAGGUGGUUUUCCCCUGAUAGUGCUAAGGGGGCCUGGAAGUUUGGACUGGGCAGAGCUCAACACAGCGUGGCAAAGUGGCUGUGGCUAGACUGCCUCUCUGGAUUCCUCGUCACUCAGCAGGGCACCUCUGAGAGAAAUGCC", "Value": 1.38}

// input: 4 variants below; output: self-cleavage for each
1. UACGUAGGUGGUUUUCCCCUGAUAGUGCUAAGGGGGCCUGGUAGUUUGGACUGGGCAGAGCUCAACACAGCGUGGCAAAGUGGCUGUGGCUAGACUGCCUCUCUGGAUUCCUCGUCACUUAGCAGGGCAUCUCUGAGAGAAAUGCC
2. UACGUAGGCGGUUUUCCCCUGAUAGUGCCAAGGGGGCCUGGAAGUUUGGACUGGGCAGAGCUCAACACAGCGUGGCAAAGUGGCUGUGGCUAGACUGCCUCUCUGGAUUCCUCGUCACUCAGCAGGGCAUCUCUGAGAGAAAUGCC
3. UACGUAGGUGGUUUUCCCCUAAUAGUGCUAAGGGGGCCUGGAAGUUUGGACUGGGCAGAGCUCAUCACAGCGUGGCAAAGUGGCUGUGGCUAGACUGCCUCUCUGGAUUCCUCGUCACUCAGCAGGGCAUCUCUGAGAGAAAUGCC
4. UACGUAGGUGGUUUUCCCCUGAUAGUGCUAAGGGGGCCUGGACGUUUGGACUGGGCAGAGCUCAACACAGCGUGGCAAAGUGGCUGUGGCUAGACUGCCUCUCUGGAUUCCUCGUCACCCAGCAGGGCAUCUCUGAGAGAAAUGCC

Response line:
0.4
1.72
0.21
1.62
